Task for the reader: assign each of the following molecules its reported Pf_120h_%Growth_Rep2.
test system: P. falciparum 3D7 parasites; test: P. falciparum growth inhibition assay, 2-cycle (120 h treatment), delayed-death screen and dose-response; type: cell-based, Plasmodium falciparum; settings: P. falciparum 3D7, 120 h, parasite screen at 2 μg/mL, % growth, replicate 2
Answers are plain numbers, in %.

Please review the following examples before continuing.
1) CCCC[C@H](O)[C@@H]1CC(OC)=CC(=O)O1 [BIA-P1067] : 111.54
2) CC(=O)c1c(O)cc(O)cc1O [BIA-M1378] : 134.53
3) C=C1c2cccc(O)c2C(=O)C2=C(O)[C@]3(O)C(=O)C(C(N)=O)=C(O)[C@@H](N(C)C)[C@@H]3[C@@H](O)[C@H]12 [BIA-M1467] : 103.99
4) CN(C)c1ccc(O)c2c1C[C@H]1C[C@H]3[C@H](N(C)C)C(O)=C(C(N)=O)C(=O)[C@@]3(O)C(O)=C1C2=O.Cl [BIA-M1472] : 73.75

Please look at the items below and tell me Pf_120h_%Growth_Rep2 for each one, in order.
1. Cn1c(=O)/c(=C/c2ccccc2)[nH]c(=O)/c1=C/c1ccccc1 [BIA-P1156]
2. CC(=O)OCC12CC(O)C(C)=CC1OC1C(O)C(OC(C)=O)C2(C)C12CO2 (stereo not drawn) [BIA-N1931]

*A*
137.39
3.84

Please look at the items below and tell me Pf_120h_%Growth_Rep2 for each one, in order.
1. CSc1cc(=O)n2c3ccccc3c3ccnc1c32 [BIA-M1959]
2. CC=CC(C)=CC(C)C(=O)CC(O)CC1CC(=O)NC(=O)C1 (stereo not drawn) [BIA-M1404]
3. O=c1cc([O-])c1=O.[Na+] [BIA-M1269]

*A*
1: 100.67; 2: 78.18; 3: 138.01

This collection of values is drawn from paper PMC12396409.
